B1: library; a variant is named by its letters at N, in order (parent)
chain: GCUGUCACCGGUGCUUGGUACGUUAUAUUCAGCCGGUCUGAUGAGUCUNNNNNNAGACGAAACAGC

Variants of: B1
Test: FACS-Seq fitted mean relative fluorescence mCherry/BFP without ligand (log10 relative fluorescence); HEK293T overexpressing SLC46A1; higher = higher reporter protein expression
Conditions: without (6R,S)-folinic acid; ligand present: no
Would you mind telling me the reported FACS-Seq fitted mean (log10) of each entry?
One number for each entry.

Below are worked cases with known answers.
{"alteration": "CCUCCA", "FACS-Seq fitted mean (log10)": 0.578}
{"alteration": "GAGUCC", "FACS-Seq fitted mean (log10)": 0.0836}
{"alteration": "UAGGAC", "FACS-Seq fitted mean (log10)": 0.556}
{"alteration": "GCAACU", "FACS-Seq fitted mean (log10)": 0.431}
{"alteration": "ACGUAG", "FACS-Seq fitted mean (log10)": 0.217}
{"alteration": "GAUGUC", "FACS-Seq fitted mean (log10)": 0.311}
{"alteration": "GACAAA", "FACS-Seq fitted mean (log10)": 0.367}
{"alteration": "GCUCAU", "FACS-Seq fitted mean (log10)": -0.192}

Take each entry in turn and give its FACS-Seq fitted mean (log10).
1. AAGGGU
2. AGGUGG
3. UGUGAG
4. CAUCUC
5. GAGUGA
6. UAUGGC
7. GAAUGG

A)
1: -0.0258; 2: 0.777; 3: 0.269; 4: 0.717; 5: 0.213; 6: -0.0353; 7: 0.297

Take each entry in turn and give its FACS-Seq fitted mean (log10).
1. GCAUAA
2. AAUAAU
3. UUCAAG
4. UAUGAC
5. UAUGAU
6. AAGAAC

A)
1: 0.276; 2: 0.533; 3: 0.372; 4: 0.193; 5: 0.263; 6: 0.369
